# Test system: Jump-In T-REx CHO-K1 BLA cells
# ASSAY OVERVIEW: cells
# Format: cell-based
# PROTOCOL CONDITIONS: T-REx-CHO-K1, 4 h, 0% FBS 4Hr; read-out: TETCHO: Counterscreen EC50
REPORTED METRIC: pEC50
Recall that pEC50 is obtained by taking minus log10 of the concentration measured in molar.

Which pEC50 reading was recorded for the molecule CC(C)[C@@H](CS(=O)(=O)C(C)C)N1C(=O)[C@@](C)(CC(=O)O)C[C@H](c2cccc(Cl)c2)[C@H]1c1ccc(Cl)cc1 ?
4.34

* * *

# ASSAY OVERVIEW: Lactate dehydrogenase (LDH) release assay
# Format: cell-based
# PROTOCOL CONDITIONS: 10% FBS 16Hr; read-out: LDH: Cytotoxicity assay: EC50
pEC50: −log10 of the molar value.
REPORTED METRIC: pEC50

Here's what some known entries look like.
MOLECULE	VALUE MEASURED
CC(=O)N[C@@H](CCCCN=[N+]=[N-])C(=O)NCCC(=O)N[C@@H](CC(C)C)C(=O)N[C@H](C(=O)N[C@@H](Cc1ccccc1)C(=O)N[C@]1(C)CCCCC#CC#CCCC[C@@](C)(C(=O)N[C@@H](C)C(=O)N[C@@H](C)C(=O)N[C@@H](C)C(=O)N[C@@H](C)C(=O)N[C@@H](C)C(=O)N[C@H](C)C(N)=O)NC(=O)[C@H](CC2CCC2)NC(=O)[C@H](CCC(N)=O)NC(=O)[C@H](C)NC(=O)[C@H](Cc2c[nH]c3ccccc23)NC(=O)[C@H](Cc2ccc(O)cc2)NC(=O)[C@H](CCC(=O)O)NC1=O)[C@@H](C)O [MP-616]	< 4.29
CC(=O)N[C@@H](CCCCN=[N+]=[N-])C(=O)NCCC(=O)N[C@H]1CCCCNC(=O)CC[C@@H]2NC(=O)[C@@](C)(CCCCCCC=CCCC[C@@](C)(C(=O)N[C@@H](CO)C(=O)N[C@@H](C)C(=O)N[C@@H](C)C(N)=O)NC(=O)[C@H](CC3CCC3)NC(=O)[C@H](CCC(N)=O)NC(=O)[C@H](C)NC(=O)[C@H](Cc3c[nH]c4ccccc34)NC(=O)[C@H](Cc3ccc(O)cc3)NC2=O)NC(=O)[C@H](Cc2ccccc2)NC(=O)[C@H]([C@@H](C)O)NC1=O [MP-002]	< 4.29

Now look at this one.
Which pEC50 reading was recorded for the molecule CC(=O)N[C@@H](CCCCN=[N+]=[N-])C(=O)NCCC(=O)N[C@@H](CC(C)C)C(=O)N[C@H](C(=O)N[C@@H](Cc1ccccc1)C(=O)N[C@]1(C)CCCCCCC=CCCC[C@@](C)(C(=O)N2CCC[C@@H]2C(=O)N2CCC[C@@H]2C(=O)N2CCC[C@@H]2C(=O)N2CCC[C@@H]2C(=O)N2CCC[C@@H]2C(=O)N2CCC[C@@H]2C(N)=O)NC(=O)[C@H](CC2CCC2)NC(=O)[C@H](CCC(N)=O)NC(=O)[C@H](C)NC(=O)[C@H](Cc2c[nH]c3ccccc23)NC(=O)[C@H](Cc2ccc(O)cc2)NC(=O)[C@H](CCC(=O)O)NC1=O)[C@@H](C)O [MP-896] ?
< 4.29
